Data provenance is paper PMC6766826.

Target: SIRT2 (Homo sapiens)
Test: In vitro SIRT2 deacetylase inhibition, electrophoretic mobility shift assay
Conditions: recombinant SIRT2, FAM-RHKK(Ac)LM peptide, 1 mM NAD, 60 min 37 °C; mean ± SD; read-out: IC50 against SIRT2
Description: The designs of the new STLC derivatives were based on TH-3 by conserving its trityl group, whereas the L-histidine moiety was replaced by L-cysteine. […] Deacetylase activities of SIRT2 were measured with an electrophoretic mobility shift assay. […] The samples were analyzed using a LabChip EZ Reader II (PerkinElmer, Waltham, MA, USA). […]
pIC50: −log10 of the molar value.
# maps each entry to its pIC50

Recorded pIC50 for COC(=O)[C@H](CSC(c1ccccc1)(c1ccccc1)c1ccccc1)NCc1cccc(Br)n1 with SIRT2 (Homo sapiens), please?
< 4.00

Recorded pIC50 for COC(=O)[C@H](CSC(c1ccccc1)(c1ccccc1)c1ccccc1)NCc1cnc2ccccc2c1 with SIRT2 (Homo sapiens), please?
< 4.00

----------
tested on: HL-60; test: MTT assay, HL-60 cells; type: cell-based, human; conditions: Homo sapiens, HL-60, 96 h exposure, leukemic cells
pIC50: −log10 of the molar value.
ENDPOINT NAME: pIC50

A = CCN(CC)c1ccnc(CN[C@@H](CSC(c2ccccc2)(c2ccccc2)c2ccccc2)C(=O)OC)c1
B = CCN(CC)c1ccnc(CN[C@H](Cc2cn(C(c3ccccc3)(c3ccccc3)c3ccccc3)cn2)C(=O)OC)c1 [TH-3, reference compound]
C = COC(=O)[C@H](CSC(c1ccccc1)(c1ccccc1)c1ccccc1)NCc1cc(N(C)C)ccn1
D = CN(C)c1ccnc(CN[C@H](CSC(c2ccccc2)(c2ccccc2)c2ccccc2)C(=O)NN)c1
Quick favor: sort the molecules up above by pIC50, largest first. Put the labels in the requested order and list them out.
B, C, A, D

----------
biological target: SIRT2 (Homo sapiens, UniProt Q8IXJ6); assay: In vitro SIRT2 deacetylase inhibition, electrophoretic mobility shift assay; format: biochemical; settings: recombinant SIRT2, FAM-RHKK(Ac)LM peptide, 1 mM NAD, 60 min 37 °C; mean ± SD; read-out: IC50 against SIRT2
ENDPOINT NAME: IC50 (µM)

P = CCN(CC)c1ccnc(CN[C@H](Cc2cn(C(c3ccccc3)(c3ccccc3)c3ccccc3)cn2)C(=O)OC)c1 [TH-3, reference compound]
Q = CN(C)c1ccnc(CN[C@H](CSC(c2ccccc2)(c2ccccc2)c2ccccc2)C(=O)NN)c1
Between item P and item Q , which reported IC50 is smaller? Pick one; state its label.
P

----------
Molecular target: SIRT2 (Homo sapiens, UniProt Q8IXJ6)
Sequence (Q8IXJ6 1-389): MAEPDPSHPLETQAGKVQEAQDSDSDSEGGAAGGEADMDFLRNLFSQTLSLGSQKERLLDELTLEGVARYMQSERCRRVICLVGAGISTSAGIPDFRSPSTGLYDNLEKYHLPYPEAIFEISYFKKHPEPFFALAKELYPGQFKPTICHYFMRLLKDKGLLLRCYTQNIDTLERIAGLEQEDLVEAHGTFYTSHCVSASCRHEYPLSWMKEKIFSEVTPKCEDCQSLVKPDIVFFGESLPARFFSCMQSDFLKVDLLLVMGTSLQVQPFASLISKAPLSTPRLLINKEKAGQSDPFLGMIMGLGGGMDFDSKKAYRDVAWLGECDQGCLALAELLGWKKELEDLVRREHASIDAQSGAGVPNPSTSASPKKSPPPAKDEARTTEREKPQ
Assay: In vitro SIRT2 deacetylase inhibition, electrophoretic mobility shift assay
Conditions: recombinant SIRT2, FAM-RHKK(Ac)LM peptide, 1 mM NAD, 60 min 37 °C; mean ± SD; read-out: IC50 against SIRT2
# maps each entry to its IC50

Use the examples below as a reference point.
CHEM SMILES	ENDPOINT NAME	VALUE
COC(=O)[C@H](CSC(c1ccccc1)(c1ccccc1)c1ccccc1)NCc1cc(N(C)C)ccn1	IC50	10.8 µM
COC(=O)[C@H](CSC(c1ccccc1)(c1ccccc1)c1ccccc1)NCc1ccc(N(C)C)cc1Cl	IC50	> 100 µM
CCN(CC)c1ccc(CN[C@@H](CSC(c2ccccc2)(c2ccccc2)c2ccccc2)C(=O)OC)cc1	IC50	> 100 µM
COC(=O)[C@H](CSC(c1ccccc1)(c1ccccc1)c1ccccc1)NCc1ccc(N(C)C)cc1	IC50	> 100 µM

Which IC50 value is on record for CCN(CC)c1ccnc(CN[C@@H](CSC(c2ccccc2)(c2ccccc2)c2ccccc2)C(=O)OC)c1 ?
17.2 µM

Which IC50 value is on record for COC(=O)[C@H](CSC(c1ccccc1)(c1ccccc1)c1ccccc1)NCc1ccccn1 ?
> 100 µM
